System: Echinochloa crus-galli (ECHCG)
Test: Pre-emergence herbicidal activity, glasshouse pot test
Format: in vivo
Settings: Echinochloa crus-galli, 312 h; Rate 250 g/ha; pre-emergence spray; evaluated after 13 days; read-out: Pre-emergence activity ECHCG (100=total damage to plant; 0=no damage to plant)
Measurement Label: pest or weed control at 250 g/ha (%)
Respond with the bare value in %.

Known results for compounds:
- CCc1ccc(Oc2ncc(Cl)cc2Cl)cc1C1=C(O)CC2(CCOCC2)CC1=O: 100
- CCc1ccc(Oc2ccc(C#N)cc2F)cc1C1=C(O)CC(C)(C)CC1=O: 60
- CCc1ccc(Oc2ccc(Br)cc2)cc1C1=C(O)CCC(C)(C)C1=O: 60

Task: Enter measured pest or weed control at 250 g/ha, system Echinochloa crus-galli (ECHCG), for the compound shown: CCc1ccc(Oc2nc3ccc(Cl)cc3s2)cc1C1=C(O)CC2(CCOCC2)CC1=O
Result: 100

Task: Enter measured pest or weed control at 250 g/ha, system Echinochloa crus-galli (ECHCG), for the compound shown: CCc1ccc(Oc2ncc(Br)cn2)cc1C1=C(O)CC(C)(C)CC1=O
Result: 100

Task: Enter measured pest or weed control at 250 g/ha, system Echinochloa crus-galli (ECHCG), for the compound shown: CCc1ccc(Oc2nc(F)c(F)c(Cl)c2F)cc1C1=C(O)C(C)(C)OC(C)(C)C1=O
Result: 70
